B1: LINE1-full (parent)
chain: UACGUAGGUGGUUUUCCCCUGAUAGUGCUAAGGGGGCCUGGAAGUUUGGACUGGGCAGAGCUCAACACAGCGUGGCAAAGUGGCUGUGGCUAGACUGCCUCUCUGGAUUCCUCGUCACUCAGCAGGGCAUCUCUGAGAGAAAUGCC

Variants of: B1
Assay: self-cleavage, relative activity (ratio to wild type); higher = more cleavage; in vitro, sequencing; the parent is a self-cleaving ribozyme
Label scheme for self-cleavage: lower than 0.4 is no (0), 0.4 and above is yes (1).

>>> label_value("A43G U46C")
"yes (1)"
>>> label_value("U46A A57U")
"no (0)"
>>> label_value("A59U U102C")
"yes (1)"
>>> label_value("A67G A92G")
"no (0)"
>>> label_value("U112C U134C")
"yes (1)"

Quick check: does A43G U45C have self-cleavage greater than or equal to 0.4?
yes (1)

Input U14C A121U
yes (1)

Same question, A43U A129U this time
yes (1)

Thanks! And U46A A124G ?
yes (1)

Proceed to G35U G55U
yes (1)

Another variant: G33A U46C
yes (1)

Now consider A2G U119C and answer again.
yes (1)

Would you mind doing G97A A142G as well?
no (0)

C103U A121G ?
yes (1)

Try this variant next: G27A U87C
no (0)

One more variant: U5G U39C
yes (1)

Note, next up: U23C A94G
no (0)

Thanks! And A117U A124C ?
yes (1)

Ok, now U91C U108A
yes (1)

Input G53U A107G
yes (1)

Another variant to check: U13C G135A
yes (1)

Please answer likewise for U62C A141G
no (0)

This collection of values is drawn from the RNAGym collection of RNA variant scans (doi:10.7554/elife.90254).
